For each of the molecules below, state its TGI.
# Test system: NCI-H226 lung
# Test: NCI tumour cell line growth inhibition, 48 h

Lab note: measured TGI of CCCCCCCCCCCCCCC(C)CCC(=O)O (stereo not given) was > 100 µM

Lab note: measured TGI of C=CCOC(=O)N1c2ccc(O)cc2[C@@]23O[C@@]24[C@@H]1C#C/C=C\C#C[C@]3(O)C(=O)C[C@@H]4C was > 100 µM

Lab note: measured TGI of COC(=O)[C@@H]1COC(=O)N1 was > 100 µM

Lab note: measured TGI of C(=C\c1c2oc(-c3ccccc3)cc(-c3ccccc3)c-2c2ccccc12)/C=C1\c2ccccc2-c2c(-c3ccccc3)cc(-c3ccccc3)[o+]c21 was > 100 µM

Lab note: measured TGI of c1cncc([O][Ge]([O]c2cccnc2)([O]c2cccnc2)[O]c2cccnc2)c1 was > 100 µM

Lab note: measured TGI of COc1ccc(OCC(O)CN2CCN(c3ccc(Cl)cc3)CC2)cc1 (stereo not given) was > 100 µM

Lab note: measured TGI of CN(/N=C\c1ccc2ccccc2c1)C1=NCCCN1 was 40.4 µM

Lab note: measured TGI of O=C(CC1=Nc2nnc(-c3nnc4n3C(=O)C(CC(=O)C3CC3)=N4)n2C1=O)C1CC1 was > 100 µM

Lab note: measured TGI of COc1ccc(N=Nc2c(N)nn3c(SC)c(C#N)c(N)nc23)cc1 was 40.7 µM

Lab note: measured TGI of O=c1[nH]c2ccc([N+](=O)[O-])c(Cl)c2c2ccccc12 was 43.9 µM
